System: K. pneumoniae ATCC 10031
Assay: MIC assay, CLSI broth microdilution in CAMH broth
Assay type: cell-based, Klebsiella pneumoniae
Conditions: K. pneumonias ATCC 10031
PROPERTY: Intrinsic MIC in CAMH

Sample answers from the record:
What the record says about `Nc1nc(N)c2ccc3c(ccn3Cc3ccc(C#Cc4ccccc4)cc3)c2n1` : Intrinsic MIC in CAMH is >64¤

What the record says about `Nc1nc(N)c2ccc3c(ccn3Cc3ccc(Br)cc3Br)c2n1` : Intrinsic MIC in CAMH is 0.25¤

---
What the record says about `Nc1nc(N)c2ccc3c(ccn3Cc3ccc(Br)cc3)c2n1` : Intrinsic MIC in CAMH is ≤0.25¤

Source: patent US20240317749A1
